# target.desc: Mitogen-activated protein kinase kinase kinase 1 (Homo sapiens, UniProt Q13233)
# Sequence (Q13233 whole entry): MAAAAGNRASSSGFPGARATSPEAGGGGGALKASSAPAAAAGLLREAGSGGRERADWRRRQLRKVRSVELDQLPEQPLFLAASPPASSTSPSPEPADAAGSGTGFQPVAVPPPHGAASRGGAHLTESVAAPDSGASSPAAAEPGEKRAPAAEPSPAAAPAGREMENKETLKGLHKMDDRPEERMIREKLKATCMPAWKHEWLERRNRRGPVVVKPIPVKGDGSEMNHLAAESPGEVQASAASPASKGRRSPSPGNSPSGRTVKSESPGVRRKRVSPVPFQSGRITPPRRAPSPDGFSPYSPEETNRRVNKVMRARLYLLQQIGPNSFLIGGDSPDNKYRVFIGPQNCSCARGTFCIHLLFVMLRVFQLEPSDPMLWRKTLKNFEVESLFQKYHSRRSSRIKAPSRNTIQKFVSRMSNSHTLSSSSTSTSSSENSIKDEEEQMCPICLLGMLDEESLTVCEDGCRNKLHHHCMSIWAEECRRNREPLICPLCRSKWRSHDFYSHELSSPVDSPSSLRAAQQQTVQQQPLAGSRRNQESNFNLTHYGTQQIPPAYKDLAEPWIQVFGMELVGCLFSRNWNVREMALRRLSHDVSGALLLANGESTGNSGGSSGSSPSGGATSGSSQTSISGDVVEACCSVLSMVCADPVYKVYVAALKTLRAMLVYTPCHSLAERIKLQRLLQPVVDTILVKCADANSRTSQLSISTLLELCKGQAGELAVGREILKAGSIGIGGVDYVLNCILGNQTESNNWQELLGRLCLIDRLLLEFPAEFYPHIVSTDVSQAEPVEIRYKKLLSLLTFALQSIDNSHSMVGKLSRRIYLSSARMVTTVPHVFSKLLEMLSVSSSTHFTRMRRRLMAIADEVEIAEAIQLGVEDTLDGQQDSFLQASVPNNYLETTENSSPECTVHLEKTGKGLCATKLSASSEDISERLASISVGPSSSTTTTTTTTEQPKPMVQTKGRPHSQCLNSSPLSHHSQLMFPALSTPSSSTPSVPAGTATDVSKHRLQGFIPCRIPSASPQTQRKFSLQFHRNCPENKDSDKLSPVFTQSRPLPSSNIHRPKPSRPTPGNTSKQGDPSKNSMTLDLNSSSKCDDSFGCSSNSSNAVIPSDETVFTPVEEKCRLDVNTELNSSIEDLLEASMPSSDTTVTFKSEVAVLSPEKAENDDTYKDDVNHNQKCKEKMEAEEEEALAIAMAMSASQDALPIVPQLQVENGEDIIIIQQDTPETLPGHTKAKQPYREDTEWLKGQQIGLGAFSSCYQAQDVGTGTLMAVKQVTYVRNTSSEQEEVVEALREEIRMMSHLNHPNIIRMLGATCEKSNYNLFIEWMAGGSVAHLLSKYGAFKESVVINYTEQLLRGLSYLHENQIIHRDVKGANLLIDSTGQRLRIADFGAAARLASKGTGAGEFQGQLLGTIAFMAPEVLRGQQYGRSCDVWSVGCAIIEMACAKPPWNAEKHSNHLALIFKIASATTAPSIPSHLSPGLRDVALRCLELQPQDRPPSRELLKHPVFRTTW
# protocol.notes: Inhibition of C-terminal FLAG-tagged MEKK (unknown origin) expressed in baculovirus expression system incubated for 5 mins prior to [gamma-33P]ATP addition measured after 60 mins by scintillation counting analysis
pIC50: −log10 of the molar value.
reported.metric: pIC50

Case "O=C(NCCO)C1=Cc2c(ncnc2Nc2ccc(Oc3cccc4sccc34)c(Cl)c2)NCC1" , Mitogen-activated protein kinase kinase kinase 1 (Homo sapiens, UniProt Q13233), pIC50 recorded as < 5.00

----------
# target.desc: Mitogen-activated protein kinase kinase kinase 5 (Homo sapiens, UniProt Q99683)
# Sequence (Q99683 whole entry): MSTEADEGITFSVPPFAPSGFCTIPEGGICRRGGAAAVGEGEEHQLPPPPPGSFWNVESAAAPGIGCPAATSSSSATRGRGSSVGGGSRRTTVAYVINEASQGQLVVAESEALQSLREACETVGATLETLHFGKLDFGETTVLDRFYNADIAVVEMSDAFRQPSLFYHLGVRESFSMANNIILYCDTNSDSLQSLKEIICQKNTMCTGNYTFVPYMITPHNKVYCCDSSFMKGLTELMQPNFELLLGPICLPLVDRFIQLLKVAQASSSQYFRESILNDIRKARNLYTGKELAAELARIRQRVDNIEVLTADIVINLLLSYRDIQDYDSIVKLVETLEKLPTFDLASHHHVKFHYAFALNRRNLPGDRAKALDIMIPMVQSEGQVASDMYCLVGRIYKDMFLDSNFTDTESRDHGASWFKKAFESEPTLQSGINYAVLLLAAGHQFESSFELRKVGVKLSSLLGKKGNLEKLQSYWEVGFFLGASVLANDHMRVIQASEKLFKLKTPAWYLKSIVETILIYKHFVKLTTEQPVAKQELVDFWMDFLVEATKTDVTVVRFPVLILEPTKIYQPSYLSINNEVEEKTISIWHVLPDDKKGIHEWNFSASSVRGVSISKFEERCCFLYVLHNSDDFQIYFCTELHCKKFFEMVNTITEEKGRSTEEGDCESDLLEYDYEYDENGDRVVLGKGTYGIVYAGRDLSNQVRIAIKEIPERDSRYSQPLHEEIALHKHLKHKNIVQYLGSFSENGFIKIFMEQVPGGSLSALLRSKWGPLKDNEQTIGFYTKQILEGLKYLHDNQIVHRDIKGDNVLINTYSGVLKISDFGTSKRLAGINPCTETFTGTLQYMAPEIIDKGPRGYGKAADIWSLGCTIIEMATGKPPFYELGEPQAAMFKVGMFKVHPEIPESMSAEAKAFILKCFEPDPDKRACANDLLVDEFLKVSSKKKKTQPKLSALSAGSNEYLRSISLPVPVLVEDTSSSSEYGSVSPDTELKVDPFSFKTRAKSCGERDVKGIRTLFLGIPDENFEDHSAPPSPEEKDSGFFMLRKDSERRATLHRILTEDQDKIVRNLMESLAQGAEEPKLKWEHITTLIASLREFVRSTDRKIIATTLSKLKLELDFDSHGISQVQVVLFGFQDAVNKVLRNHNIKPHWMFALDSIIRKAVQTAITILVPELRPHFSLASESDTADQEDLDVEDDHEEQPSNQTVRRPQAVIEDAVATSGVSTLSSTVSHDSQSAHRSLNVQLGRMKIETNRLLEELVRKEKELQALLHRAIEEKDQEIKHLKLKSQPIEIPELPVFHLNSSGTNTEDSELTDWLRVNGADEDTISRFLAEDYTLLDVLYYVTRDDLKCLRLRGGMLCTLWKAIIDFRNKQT
# protocol.notes: Inhibition of N-terminal FLAG-tagged ASK1 (unknown origin) expressed in baculovirus expression system incubated for 5 mins prior to [gamma-33P]ATP addition measured after 60 mins by scintillation counting analysis
reported.metric: IC50

Case "O=C(NCCO)C1=Cc2c(ncnc2Nc2ccc(Oc3cccc4sccc34)c(Cl)c2)NCC1" , Mitogen-activated protein kinase kinase kinase 5 (Homo sapiens, UniProt Q99683), IC50 recorded as > 10 µM
